Just for reference, BindingDB's records for doi:10.1021/jm0492397 is where these values come from.

Target: Cytochrome P450 11B1, mitochondrial (Homo sapiens, UniProt P15538)
Sequence (P15538 whole entry): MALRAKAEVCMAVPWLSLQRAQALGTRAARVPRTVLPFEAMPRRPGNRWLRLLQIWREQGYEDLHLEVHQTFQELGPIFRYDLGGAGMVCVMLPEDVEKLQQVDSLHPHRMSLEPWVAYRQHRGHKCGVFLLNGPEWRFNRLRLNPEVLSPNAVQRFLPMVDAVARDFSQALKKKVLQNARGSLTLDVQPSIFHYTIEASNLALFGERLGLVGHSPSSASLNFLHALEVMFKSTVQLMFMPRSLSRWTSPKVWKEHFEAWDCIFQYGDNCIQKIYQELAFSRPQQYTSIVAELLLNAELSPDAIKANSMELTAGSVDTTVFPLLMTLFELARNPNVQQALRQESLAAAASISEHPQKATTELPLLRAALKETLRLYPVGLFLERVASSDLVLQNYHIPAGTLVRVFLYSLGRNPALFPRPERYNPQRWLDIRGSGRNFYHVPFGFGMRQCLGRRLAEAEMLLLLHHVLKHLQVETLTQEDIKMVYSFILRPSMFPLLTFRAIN
resultType: pIC50
// scale note: pIC50 = -log10(conc_M); give the bare number

// below: answered compounds
[
  {
    "givenSmiles": "Brc1ccc2c(c1)CC/C2=C/c1ccncc1",
    "resultType": "pIC50",
    "measValue": 6.06
  },
  {
    "givenSmiles": "C(=C1/CCCc2ccccc21)/c1ccncc1",
    "resultType": "pIC50",
    "measValue": 6.55
  }
]

Moving on to the next compound.
Recorded result, Clc1ccc2c(c1)CC/C2=C/c1ccncc1 , pIC50: 5.95
